The measurements presented in this section are drawn from ChEMBL document CHEMBL2401628.

System: Hydroxyapatite
METHOD NOTES: Binding affinity to hydroxyapatite at 0.07 mmol up to 120 hrs by 31P NMR-spectroscopy relative to H3PO4
Listed here: items and their measured Activity.
Express it in %; write the number only.

The following compounds have reported results that may help.
O=P(O)(O)C(CNc1ccccc1)P(=O)(O)O
66
O=P(O)(O)C(O)(Cn1ccnc1)P(=O)(O)O
82
O=P(O)(O)C(CSCCO)P(=O)(O)O
70
O=P(O)(O)C(CN1CCOCC1)P(=O)(O)O
65
O=P(O)(O)C(CNc1ccccn1)P(=O)(O)O
94

The recorded Activity for O=P(O)(O)C(CSc1ccccc1)P(=O)(O)O is 34
